Assay: NCI Yeast Anticancer Drug Screen. Data for the CLN2oe strain (AID 163);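 note: 0% = growth of vehicle-only control cultures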
Conditions: S. cerevisiae CLN2oe strain, at 33.0 µM, active compounds read high
Description: Growth inhibition of yeast strains with defined genetic alterations is measured as a screen for potential anti-cancer activity. Selected strains with alterations in DNA damage repair or cell cycle control were exposed to compounds and growth inhibition was measured relative to vehicle treated controls. The strain used in this assay is CLN2oe
The panel holds about 79,000 compounds, 15% with a hit somewhere; the sample as a whole holds those more often.
# growth inhibition listing for each entry below
The response must be a number in % with no trailing unit.

Examples with answers:
Param item = `COC(=O)C(Cl)(Cl)N=Nc1c(Cl)cc(Cl)c(C)c1Cl` ; retrieve measured growth inhibition.
99

Would you mind doing O=C1C(/C=C/c2ccc(Cl)cc2)=NNC2N1N=C1NC(=O)C3(NN12)c1ccccc1-c1ccccc13 (stereo not drawn) as well?
9

Same for `COc1ccc2nc3cccc([N+](=O)[O-])c3c(NCCNCCN(C)C)c2c1`
3

Same question for `CCC(C)(C)c1ccc(Oc2ccccc2)c(N)c1` please.
99

Now this one: `CCOP(=O)(OCC)/C(C#N)=C\c1cccc2ccccc12`
59

Query `CCc1c(Cl)c(C)c(Cl)c(O)c1Cl` next
90

Further cases:
Requested read-out: growth inhibition. Entry: `COC(=N)c1ccc(O)c(C)c1`
-3

How about `CC1=COC2=C(C)C(=O)C(=O)c3c(C)ccc1c32` ?
77
